Test system: photosynthetic electron transport (PET) in spinach chloroplasts
assayProcedure: Inhibition of photosynthetic electron transport (oxygen evolution rate) in spinach chloroplasts
Format: biochemical, Spinacia oleracea L.
measurementParameters: DCPIP photoreduction, pH 7.2
// returns F unless IC50 is strictly below 300 µM, in which case T

Known results for compounds:
1) COc1ccc(CNC(=O)c2cnc(C(C)(C)C)c(Cl)n2)cc1 ... T
2) O=C(NCc1ccccc1)c1cnc(Cl)cn1 [Compound 1, N-Benzyl-5-chloropyrazine-2-carboxamide] ... F
3) O=C(NCc1cccc(C(F)(F)F)c1)c1cnc(Cl)cn1 ... F
4) CC(C)(C)c1ncc(C(=O)NCc2ccccc2)nc1Cl ... T
5) O=C(NCc1ccc(Cl)cc1)c1cnc(Cl)cn1 ... F
6) CC(C)(C)c1ncc(C(=O)NCc2ccc(Cl)cc2)nc1Cl ... T

Enquiry: Is IC50 of O=C(NCc1cccc(C(F)(F)F)c1)c1cncc(Cl)n1 strictly below 300 µM?
Return: F

Enquiry: Is IC50 of CC(C)(C)c1ncc(C(=O)NCc2cccc(C(F)(F)F)c2)nc1Cl strictly below 300 µM?
Return: T
